- protocol description: yeast display, Sf9 membrane polyspecificity reagent, FACS + sequencing; frameworks hold sequencing errors
quantity: polyreactivity (PSR sort gate)

- residue codes: "QVQLVESGGGLVQAGGSLRLSCAASGRTFVVYGMGWYRQAPGKERELVATITSGGSTDYADSVKGRFTIARDNAKNTVYLQMNSLKPEDTAVYYCAKETSYTNDDDYWGQGTQVTVSS"
  result: "low polyreactivity"
- residue codes: "QVQLVESGGGLVQAGGSLRLSCAASGITFQPYAMGWYRQAPGKEREFVAVISFRGGSTYYADSVKGRFTISRDNAKNTVYLQMNSLKPEDTAVYYCAALEYHGHTGGRVYYWVQGTQVTVSS"
  result: "high polyreactivity"
- residue codes: "QVQLVESGGGLVQAGGSLRLSCAASGFTFRFYAMGWYRQAPGKERELVAGISSSGGTTYYADSVKGRFTISRDNAKNTVYLQMNSLKPEDTAVYYCNRRFLPAEQYTKKYYYWGQGTQVTVSS"
  result: "high polyreactivity"
- residue codes: "QVQLVESGGGLVQAGGSLRLSCAASGSIFPDYALGWYRQPPGKERELVAAITWRDDSTYYADSVKGRFTSSRDKAKNTVYLQMNSLKPEETAVYYCNASAMDPLYAKDDYWGQGTQVTVSS"
  result: "low polyreactivity"
- residue codes: "QVQLVESGGGLVQAGGSLRLSCAASGSTFYTYAMGWYRQAPGKECELVAAISNRGGSTRYADSVKGRFTISRDNAKNTVYLQMNSLKPEDTAVYYCAAQRIRRGWYGYWGPGTQVTVSS"
  result: "high polyreactivity"
- residue codes: "QVQLVESGGGLVQAGGSLRLSCAASGRTFYGYAMGWYRQAPGKERELVAAITYSGGRTYYADSVKGRFTISRDNAKNTVYLQMNSLKPEDTAVYYCNTGYWYVSLGSYDYYGEYDYWGQGTQVTVSS"
  result: "high polyreactivity"
- residue codes: "QVQLVESGGGLVHAGGSLRLSCAASGRIFRWYAMGWYRQAPGKERELVAAISSRGGSTYYADSVKGRFTISRDNAKNTVYLQMNSLKPEDTAVYYCAADTSGWQPRYDYWGQGTQVTVSS"
  result: "high polyreactivity"
- residue codes: "QVQLVESGGGLVQAGGSHRLSCAATGFTFSYYSMGWYRQAPGKERELVAAITSSAGSTYYADTVKGRFTISRDNAKNTVYLQMNSLKPEDTAVYYCNAVYSKLNGGYDYWGQGTQVTVSS"
  result: "low polyreactivity"
- residue codes: "QVQLVESGGGLVQAGGSLRLSCAASGSTFTYYAMGWYRQAPGKERELVAAITSNGGSTFYADSVKGRFTISRDNAKNTVYLQMNSLKPEDTAVYYCAAYRTHGPPRAIRFDYWGQGTQVTVSS"
  result: "high polyreactivity"
- residue codes: "QVQLVESGGGLVQAGGRLRLSCAASGITFYRYAMGWYIQAPGKERELVASISSRGSSSYYADSVKGRFTISRDNAKNTVYLQRNSLKPEDTAVYYCAKSRGSRGFVASTYNYWGQGTQVTVSS"
  result: "high polyreactivity"
- residue codes: "QVQLVESGGGLVQAGGSLRLSCAASGITFTENVMGWYRQAPGKERELVAGISRSGGITYYADSVKGRFTISRDNAKNTVYLQMNSLKPEDTAVYYCAAEEAYRSRRGGFDYWGQGTQVTVSS"
  result: "high polyreactivity"
- residue codes: "QVQLVESGGGLVQAGGSLRLSCAASGRTFHRYTMGWYRQAPGKERELVASISRSGGSTYYADSVKGRFTISRDNAKNTVYLQMNSLKPEDTAVYYCAARVSRRGTWYDYWGQGTQVTVSS"
  result: "high polyreactivity"
- residue codes: "QVQLVESGGGLVQAGGSLRLSCAASGFTFSYYAMGWYRQAPGKERELVAAITTSGGRTYYADSVKGRFTISRDNAKNTVYLQMNSLKPEDPAVYYCAATYPRYYSGEFDYWGQGTQVTVSS"
  result: "high polyreactivity"
- residue codes: "QVQLVESGGGLVQAGGSLRLSCAASGSIFWPNAMGWYRQAPGKERELVAAIRRSGGSTYYADSVKGRFTISRDNAKNTVYLQMNSLKPEDTAVYYCAARADLHRRVRNIYYSWGQGTQVTVSS"
  result: "low polyreactivity"
- residue codes: "QVQLVESGGGLVQAGGSLRLSCAASGSTFGGNDMGWYRQAPGKERELVAAISSGTSTNYADSVKGRFTISRDNAKNTVYLQMNSLKPEDTAVYYCAAKWHVRGRGARYRYDYDYWGQGTQVTVSS"
  result: "low polyreactivity"
- residue codes: "QGQLVESAGGLVQAGGSLRLSCGASGRSFYSYTMGWYRQAPVKERELVAAITRADRTHYADSVKGRFTISRDYATKHVDCERNSQKPEDTAVYYAATRQVYSVRYYYRGQGTQVTVSS"
  result: "high polyreactivity"
- residue codes: "QVQLVESGGGLVQAGGSLRLSCAASGSIFGVNAMGWYRQAPGKERELVAAISSGGSTNYADSVKGRFTISRDNAKNTVYLQMNSLKPEDTAVYYCAADTKTRSNYDYWGQGTQVTVSS"
  result: "low polyreactivity"
- residue codes: "QVQLVDSGGGLVQEGGSLRLSCAASGRIFWYYDMGWYRQAPGKERELVAAISQRGGSTYYADSVKGRFTISRDNAKNTVYLQMNSLKPEDTAVYYCAKRNPYWATREYWGQGTQVTVSS"
  result: "high polyreactivity"
- residue codes: "QVQLVESCGGLVQAGGSLRLSCAASGRTFRSYTMGWYRQAPGKERELVASIRTSSGCTYYADSVKGRFTISRDNAKNSVYLKMNSLKPEDTAVYYCAKTLLYPWFRTVAVDYWGQGTQVTVSS"
  result: "low polyreactivity"
- residue codes: "QVQLVESGGGLLQAGVTLRLSCAPSGFTQDSYSMGWYRQAPGKERELVARIRWSGGSTYYADSVKGRFTISRDNAKNTVYLQMNSLKPEDKAVYYCAADRPYYFLPYSTYTNYDSWGQGTQVTVSS"
  result: "low polyreactivity"
- residue codes: "QVQLVESGGGLVQAGGSLRLSCAASGIIFDGNAMGWYRQAPGKERELVASITSDSSTNYADSEKGRFTISRDNAKNTVYLQMNSLKPADTAVYYCAADHWIAPRRDYWGQGTQVTVSS"
  result: "low polyreactivity"
